system: Human immunodeficiency virus 1; assay: Inhibitory concentration against human immunodeficiency virus type 1; assay type: functional, organism-based
VALUE TYPE: IC50

- ITEM SMILES: "CN1N=C(N)c2cn([C@@H]3O[C@H](CO)[C@@H](O)[C@H]3O)c3nnnc1c23"
  RESULT: "600 nM"
